# subject-of-test: human GK (Homo sapiens, UniProt P35557)
# Sequence (P35557 whole entry): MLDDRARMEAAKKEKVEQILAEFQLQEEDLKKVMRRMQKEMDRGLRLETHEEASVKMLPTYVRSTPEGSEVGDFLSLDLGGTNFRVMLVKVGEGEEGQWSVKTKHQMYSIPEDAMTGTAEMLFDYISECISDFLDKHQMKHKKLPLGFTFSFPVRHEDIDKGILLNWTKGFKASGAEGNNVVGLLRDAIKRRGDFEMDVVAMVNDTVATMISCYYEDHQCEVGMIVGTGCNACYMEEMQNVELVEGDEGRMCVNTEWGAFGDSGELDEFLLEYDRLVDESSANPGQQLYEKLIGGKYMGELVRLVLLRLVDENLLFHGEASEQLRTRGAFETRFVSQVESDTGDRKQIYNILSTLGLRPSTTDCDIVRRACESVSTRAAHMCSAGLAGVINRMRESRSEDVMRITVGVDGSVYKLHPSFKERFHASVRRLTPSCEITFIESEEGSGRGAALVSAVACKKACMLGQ
# assay: Glucokinase Activation Screening Assay (coupled enzyme assay with PK and LDH)
# Format: biochemical
# condition-info: activation of human GK in percent of control (control incubation: 2 mM glucose, 0.91% DMSO); compound concentration not stated
Parameter: hGK % CTL. Scope: all listed entries.
Numeric only. Scale: % CTL

Guide cases for hGK % CTL, answers given:
CCc1ccc2c(c1)OCCC(C(=O)Nc1nccs1)C2=O (stereo not drawn): 207
O=C(Nc1nccs1)C1CCOc2ccccc2C1=O (stereo not drawn): 115

Next compound, please.
Exam item: Bench note: what hGK % CTL did O=C(Nc1ccccn1)C1CCOc2cc(Cl)c(Cl)cc2C1=O (stereo not drawn) show?
Marked response: 312
